test_system: UniProtKB Q9NYK1
Sequence (Q9NYK1 27-1049): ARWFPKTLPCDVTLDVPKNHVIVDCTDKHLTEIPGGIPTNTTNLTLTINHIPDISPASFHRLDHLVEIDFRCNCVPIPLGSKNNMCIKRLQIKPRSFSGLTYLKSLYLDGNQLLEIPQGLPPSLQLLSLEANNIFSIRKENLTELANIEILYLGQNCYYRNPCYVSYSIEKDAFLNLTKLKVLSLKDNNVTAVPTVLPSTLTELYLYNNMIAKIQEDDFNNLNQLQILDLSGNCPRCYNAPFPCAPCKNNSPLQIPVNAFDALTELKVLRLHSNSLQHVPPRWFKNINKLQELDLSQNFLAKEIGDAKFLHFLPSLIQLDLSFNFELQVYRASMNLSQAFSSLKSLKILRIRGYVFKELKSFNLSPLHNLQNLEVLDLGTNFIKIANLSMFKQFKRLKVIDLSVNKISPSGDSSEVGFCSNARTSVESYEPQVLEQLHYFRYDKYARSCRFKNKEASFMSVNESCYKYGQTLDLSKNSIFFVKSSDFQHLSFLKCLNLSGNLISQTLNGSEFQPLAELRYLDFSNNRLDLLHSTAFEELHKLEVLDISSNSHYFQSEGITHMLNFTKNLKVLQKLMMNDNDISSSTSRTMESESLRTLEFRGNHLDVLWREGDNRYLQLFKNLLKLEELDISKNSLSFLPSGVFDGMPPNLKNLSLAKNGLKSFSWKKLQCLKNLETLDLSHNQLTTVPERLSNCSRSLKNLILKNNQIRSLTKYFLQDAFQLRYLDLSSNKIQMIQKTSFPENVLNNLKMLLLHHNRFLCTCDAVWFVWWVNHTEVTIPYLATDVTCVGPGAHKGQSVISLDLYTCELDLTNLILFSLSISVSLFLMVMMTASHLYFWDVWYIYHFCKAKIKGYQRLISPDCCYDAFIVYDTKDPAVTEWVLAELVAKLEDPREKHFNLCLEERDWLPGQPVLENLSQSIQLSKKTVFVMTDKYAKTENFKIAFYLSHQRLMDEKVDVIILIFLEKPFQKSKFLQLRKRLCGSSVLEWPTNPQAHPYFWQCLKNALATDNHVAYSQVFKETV
method_notes: TLR7 inhibition reporter assay (HEK-Blue cells, SEAP reporter, gardiquimod stimulation)
measurement_parameters: HEK-Blue cells overexpressing human TLR7, SEAP reporter, gardiquimod 7.5 μM
measurement_type: IC50 (nM)
One number for each entry, in nM.

Known results for compounds:
[
  {
    "compound": "COc1cc(-c2[nH]c3ccc(C4CCC(N5CCCC(F)(F)C5)CC4)cc3c2C(C)C)cn2ncnc12 (stereo not drawn) [Example 34]",
    "IC50, nM": 5
  },
  {
    "compound": "Cc1cc(-c2[nH]c3ccc(C4CN(C(=O)CN(C)C)CCO4)cc3c2C(C)C)cc(C)n1 (stereo not drawn) [Example 335]",
    "IC50, nM": 5
  },
  {
    "compound": "COc1cc(-c2[nH]c3ccc(C4CCC(N(C)CCC(F)(F)F)CC4)cc3c2C(C)C)cn2ncnc12 (stereo not drawn) [Example 82]",
    "IC50, nM": 7
  },
  {
    "compound": "COc1cc(-c2[nH]c3ccc(C4CCC(N(C)C5CC5)CC4)cc3c2C(C)C)cn2ncnc12 (stereo not drawn) [Example 12]",
    "IC50, nM": 0.7
  }
]

Would you be so kind as to report IC50 for each listed record?
1. CC(C)c1c(-c2ccnc3[nH]ncc23)[nH]c2ccc(C3CCC(Oc4ccncc4)CC3)cc12 (stereo not drawn) [Example 504]
2. COc1cc(-c2[nH]c3ccc(C4CCCN(C5CCOCC5)C4)cc3c2C(C)C)cn2ncnc12 (stereo not drawn)
3. Cc1cc(-c2[nH]c3ccc(C4CCNC4)cc3c2C(C)C)cc(C)n1 (stereo not drawn)
4. COc1cc(-c2[nH]c3ccc(C4CCC(NS(C)(=O)=O)CC4)cc3c2C(C)C)cn2ncnc12 (stereo not drawn)
5. COc1cc(-c2[nH]c3ccc(C4CC5CN(CC(=O)N(C)C)CC5C4)cc3c2C(C)C)cn2ncnc12 (stereo not drawn)

Ans.
1: 98; 2: 4; 3: 5; 4: 0.7; 5: 0.27
